- Test system: pERK in MDA-MB-231 cells
- procedure.text: Bio-Plex phospho-ERK 1/2 immunoassay (basal pERK)
- Assay type: cell-based
- measurement.setup: Homo sapiens, 2 h incubation
result.type: IC50 (nM)
Report the value in nM with no unit label.

Request the reported IC50 associated with CNC(=O)c1cc(Oc2ccc(NC(=O)Nc3ccc(Cl)c(C(F)(F)F)c3)c(F)c2)ccn1 [Example 1] 22

###

- study.system: p38 α2 (Homo sapiens)
- Sequence (Q16539 whole entry): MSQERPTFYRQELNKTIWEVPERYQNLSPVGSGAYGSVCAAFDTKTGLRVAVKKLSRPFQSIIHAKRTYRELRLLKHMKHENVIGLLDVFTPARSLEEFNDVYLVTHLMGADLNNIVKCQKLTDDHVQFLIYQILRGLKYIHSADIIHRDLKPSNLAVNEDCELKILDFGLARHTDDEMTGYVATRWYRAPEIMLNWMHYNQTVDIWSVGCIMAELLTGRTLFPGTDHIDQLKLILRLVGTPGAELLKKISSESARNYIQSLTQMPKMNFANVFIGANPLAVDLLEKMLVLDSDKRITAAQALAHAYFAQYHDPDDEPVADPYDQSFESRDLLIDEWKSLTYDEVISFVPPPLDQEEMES
result.type: IC50 (nM)
Return type: number; implicit unit nM.

Return reported IC50; argument: CNC(=O)c1cc(Oc2ccc(NC(=O)Nc3ccc(Cl)c(C(F)(F)F)c3)c(F)c2)ccn1 24

src = patent US8637553B2
